From: the MegaScale stability set (Tsuboyama et al. 2023)

B1: 1ZHC (parent)
chain: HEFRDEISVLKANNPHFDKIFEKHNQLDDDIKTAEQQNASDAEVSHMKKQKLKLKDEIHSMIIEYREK

Variants of: B1
Assay: folding stability dG (cDNA display proteolysis); higher = more stable
Details: PBS, room temperature
EXPERIMENTAL ENDPOINT: folding stability dG (kcal/mol)
Give bare numbers, in kcal/mol.

# example entries with known answers
INSERT INTO assay_data (mutant, number) VALUES
  ('K23Q', 1.33),
  ('H16A', 0.24),
  ('A39T', 0.09),
  ('K23S', 0.339),
  ('K19W', 1.3);

Okay, here is my list. What is folding stability dG for each of these?
1. E35C
2. L27F
3. H16W
4. K11D
5. K19Q
6. A39L

0.531
0.005
1.1
-0.966
0.953
1.36

Dear colleague, could you send me folding stability dG for each of the items below? Thanks.
1. A39D
2. I7L
3. D56N
4. T33F
5. R4A
6. P15R
7. D56Y
8. H46W

1: 0.034; 2: 0.235; 3: 1.07; 4: 1; 5: 1.26; 6: 0.029; 7: 1.5; 8: 1.29
